# Tested on: lung adenocarcinoma H460 cells
# Test Method Notes: Cell viability by MTT, H460
# Format: cell-based, human
# Condition Parameters: 3 hour exposure

{"columns": ["Molecule", "Test Target", "cell viability"],
 "data": [
  ["C=CCNC1=C2C[C@@H](C)C[C@H](OC)[C@H](O)[C@@H](C)/C=C(\\C)[C@H](OC(N)=O)[C@@H](OC)/C=C\\C=C(/C)C(=O)NC(=CC1=O)C2=O", "lung adenocarcinoma H460 cells", "had no effect"],
  ["CO[C@H]1/C=C\\C=C(/C)C(=O)NC2=CC(=O)C(NCCCNC(=O)CCCN3C(=O)CC(SC[C@H]4CCN5CC[C@H](CO[Si](c6ccccc6)(c6ccccc6)C(C)(C)C)N=C5N4)C3=O)=C(C[C@@H](C)C[C@H](OC)[C@H](O)[C@@H](C)/C=C(\\C)[C@@H]1OC(N)=O)C2=O (some centres unmarked)", "lung adenocarcinoma H460 cells", "had no effect"]
]}
